System: OVCAR-3 ovarian
EXPERIMENTAL DETAILS: NCI-60 one-dose screen, 48 h
CONDITION NOTES: 10 µM unless noted
This is part of a sample that, as a whole, favours compounds with a hit. Of some 83,000 tested, about 20% had one in any assay. Active and inactive are the calls of the source. Rule for the calls: active = growth percent below 10; inactive = the rest.
Respond only with the outcome that fits, drawn from True = active, False = inactive

Example entries begin here.
# COMPOUND, CLASS ASSIGNMENT
records = [
    ("CC(=O)Nc1nc(C)c(C(=O)NN)s1", "False"),
    ("CCN(CC)c1ccc2nc3ccc(N=Nc4ccc(O)cc4)cc3[n+](-c3ccccc3)c2c1", "True"),
    ("COc1ccc(-c2nc(SCC(C)C)nc(Nc3ccc([N+](=O)[O-])cc3)c2C#N)cc1", "False"),
    ("Cc1cc2cn3c4ccc(O)cc4[nH]c(=O)c3c2cc1C", "True"),
    ("O=C(Nc1cccc(Cn2c(=O)[nH]c3ccc(Oc4ncccn4)cc3c2=O)c1)c1ccc(Cl)cc1", "False"),
]

Now turn to the next compound.
Per the assay record, what outcome was assigned to Cc1c([C@H](C(Cl)Cl)[C@H](O)[C@H]2C[C@H](C)C(=O)O2)ccc2c1C(=O)[C@H]1[C@H]2C[C@@H](Br)[C@@]23O[C@@H](CO[C@H]2O)CC13C (some centres undefined) ? True

###

Tested on: MCF7 breast
EXPERIMENTAL DETAILS: NCI-60 one-dose screen, 48 h (100 = growth as untreated, 0 = no growth, -100 = all killed)
CONDITION NOTES: 10 µM unless noted
Protocol: Growth inhibition of the MCF7 human tumor cell line is measured as a screen for anti-cancer activity. Cells are grown in 96 well plates and exposed to the test compound for 48 hours. Compounds are tested at a single concentration, which is 10^-5 M for most compounds. The reported endpoint is percent growth (GI% or GIPRCNT), where numbers from 0 - 100% represent growth inhibition, and numbers from -100% - 0 represent cell death. For example, a value of 40 represents 60% growth inhibition. […]
About 83,000 compounds went through this panel and 20% of them were active in at least one assay; those are over-represented in the sample as a whole.
Measured growth determines class: category 1 = under 50%, category 2 = from 50% up to 90%, category 3 = 90% and over

# COMPOUND, CLASS ASSIGNMENT
records = [
    ("C[n+]1c2ccccc2c(Nc2ccc(NS(=O)(=O)CCCCN=C(N)N)cc2)c2ccc(N)cc21", "category 1"),
    ("COc1ccc2oc(=O)cc(CN3C(=O)S/C(=C\\c4ccc(Cl)cc4)C3=O)c2c1", "category 2"),
    ("COc1ccc(C(=O)N2N=C(c3ccc(Br)cc3)CC2c2cn(-c3ccccc3)nc2-c2ccccc2)cc1 (stereo not drawn)", "category 1"),
    ("CCOC(=O)NC1=NCC(C)(C)S1", "category 3"),
]

Quick check: band for O=C(NCCCl)Nc1nccnc1OCc1ccc(F)cc1 category 2

###

System: OVCAR-5 ovarian
EXPERIMENTAL DETAILS: NCI-60 one-dose screen, 48 h
CONDITION NOTES: 10 µM unless noted
This is part of a sample that, as a whole, favours compounds with a hit. Of some 83,000 tested, about 20% had one in any assay. The source made the active and inactive calls. The calls were made as follows: active = growth percent below 10; inactive = the rest.
Respond only with the outcome that fits, drawn from yes = active, no = inactive

Example entries begin here.
# MOLECULE, ASSAY TARGET, CLASS ASSIGNMENT
records = [
    ("Clc1ccc(N/N=C(\\c2ccccc2)c2ccccn2)nc1", "OVCAR-5 ovarian", "no"),
    ("CC(=O)c1cc(Nc2cc(C)nc(N)n2)cc(C(C)=O)c1", "OVCAR-5 ovarian", "no"),
    ("COc1nc(OC)nc(-c2cc(C(=O)c3ccc(Br)cc3)n3cc(C)cc(C)c23)n1", "OVCAR-5 ovarian", "no"),
    ("S=C(N/N=C/c1cc(Cl)cc(Cl)c1)NC12CC3CC(CC(C3)C1)C2", "OVCAR-5 ovarian", "no"),
    ("O=C1OC(c2ccc(-c3ccccc3)cc2)=C/C1=C/c1c2ccccc2cc2ccccc12", "OVCAR-5 ovarian", "no"),
    ("COc1ccccc1CNCCCN1C(=O)c2ccc3c4c(ccc(c24)C1=O)C(=O)N(CCCNCc1ccccc1OC)C3=O", "OVCAR-5 ovarian", "yes"),
]

Per the assay record, what outcome was assigned to CCCCCCCCC(=O)Nc1ccc(O)cc1 ? no

Per the assay record, what outcome was assigned to c1cc[c]([Bi]([c]2ccccc2)[c]2ccccc2)cc1 ? no

Per the assay record, what outcome was assigned to COC(=O)C1CC(=O)N(C(=O)Nc2ccc(Cl)cc2Cl)C1 (stereo not given) ? no

Per the assay record, what outcome was assigned to CCCCCCCCc1ccc(OCCOCC[N+](C)(C)CC)cc1 (tested in a mixture with another compound) ? no

Per the assay record, what outcome was assigned to CCCCCCCCCC[N+](C)(C)N ? no

###

Test system: DU-145 prostate
EXPERIMENTAL DETAILS: NCI-60 one-dose screen, 48 h
CONDITION NOTES: 10 µM unless noted
Compounds without any hit were thinned out: in the full panel of roughly 83,000, 20% have a hit. Activity calls are given as the source filed them. How the source made its calls: active means growth percent below 10; inactive means the rest.
Respond only with the outcome that fits, drawn from active, inactive

Example entries begin here.
# MOLECULE, CLASS ASSIGNMENT
records = [
    ("COc1cccc(Cn2cc3c(c2)-c2oncc2CC3)c1", "inactive"),
    ("CCC(C)C1NC(=O)C(CCCCN)NC(=O)C(CCCCN)NC(=O)C(CC(C)C)NC(=O)C(CCCCN)NC(=O)C(C(C)CC)NC(=O)C(C(C)C)NC(=O)C(C(C)CC)NC(=O)C(CCCCN)NC(=O)C(CCCCN)NC(=O)C(C)NC(=O)C(CCCCN)NC(=O)C(CC(C)C)NC1=O (stereo not drawn)", "inactive"),
]

Now turn to the next molecule.
Per the assay record, what outcome was assigned to COc1cc(/C=C/C(=O)c2ccc(F)cc2)ccc1OCCCCOc1cc2c(cc1OC)C(=O)N1CCCC1C=N2 (stereo not drawn) ? active

###

Test system: NCI-H226 lung
EXPERIMENTAL DETAILS: NCI-60 one-dose screen, 48 h (100 = growth as untreated, 0 = no growth, -100 = all killed)
CONDITION NOTES: 10 µM unless noted
About 83,000 compounds went through this panel and 20% of them were active in at least one assay; those are over-represented in the sample as a whole.
ATTRIBUTE MEASURED: growth (%)
Give your result in % as a bare value.

Sample records with growth:
# COMPOUND, ASSAY TARGET, growth, %
rows = [
    ("CCCCCCCCCCCCCCCCCC(=O)Nc1ccc(O)cc1", "NCI-H226 lung", 102),
    ("CC(=O)Nc1nc(C)c(C(=O)N/N=C/c2cccs2)s1", "NCI-H226 lung", 86.9),
    ("CCCCN(CCC)CCCCCCCCCCN1CCCc2ccccc21", "NCI-H226 lung", 99.5),
]

// recorded growth for Nc1nc2c(c3cnccc13)C(c1cccc(Br)c1)Cc1cnccc1-2 (stereo not given) : 25.5

// recorded growth for COc1cc2c(cc1OC)C(Cc1cc(OC)c(OC)cc1[N+](=O)[O-])=NCC2 : 88.7

// recorded growth for COc1cc(-c2nn(-c3ccc(NC(=O)Nc4ccc(Cl)c(Cl)c4)cc3)cc2-c2ccncc2)ccc1Cl : 52.6

// recorded growth for COc1cc(OC)cc(-c2ccc(-c3ccc(C(=N)N)cc3)s2)c1 : -67.5

// recorded growth for COC(=O)[C@@H]1[C@H](O)[C@H](C)[C@H](O)[C@H](C)/C=C\C=C(C)C(=O)Nc2c(C)c(OC(C)=O)c3c(c2O)C(=O)C(C)=C2OCOC(=C23)C(C)=C[C@@](C)(O)[C@H](O)[C@@H](C)[C@H]1OC(C)=O : 104

// recorded growth for C=CCNC(=S)NNc1ccc([N+](=O)[O-])cn1 : 94.4

// recorded growth for O=C(NCCO)C(F)(F)F : 111

###

Tested on: TK-10 renal
EXPERIMENTAL DETAILS: NCI-60 one-dose screen, 48 h (100 = growth as untreated, 0 = no growth, -100 = all killed)
CONDITION NOTES: 10 µM unless noted
Compounds without any hit were thinned out: in the full panel of roughly 83,000, 20% have a hit.
As shown below, each of these compounds has a reported growth value.
Give your result in % as a bare value.

Sample records with growth:
# MOLECULE, ATTRIBUTE MEASURED, OBSERVED
records = [
    ("Cc1cc2cn3c4ccc(O)cc4[nH]c(=O)c3c2cc1C", "growth", 0.912),
    ("COc1ccc(/C(=C(\\c2ccccc2)[N+](=O)[O-])c2ccc(OCCN3CCCC3)cc2)cc1", "growth", 80.4),
    ("COc1ccc(C(=O)NCCNc2nccc(-c3c(-c4ccc(F)cc4)nc4sccn34)n2)cc1", "growth", 29.1),
    ("C[C@]12C=CC(=O)C=C1[C@@H](F)C[C@@H]1[C@@H]2[C@@H](O)C[C@@]2(C)[C@H]1CC[C@]2(O)C(=O)CO", "growth", 107),
    ("CC(=O)Nc1nc(C)c(C(=O)N/N=C/N2CCCCC2)s1", "growth", 144),
    ("N=C(N)c1ccc(-c2ccc(-c3ccc(Cl)cc3)s2)s1", "growth", -55.3),
    ("CC(C)(C)c1ccc(OCCOC(=O)CBr)cc1", "growth", 109),
    ("O=C(O)c1occ(Cl)c1Cl", "growth", 111),
]

// recorded growth for COC(=O)c1ccc2[nH]c(O)c(C(=Nc3ccc(N(C)C(=O)CN4CCN(C)CC4)cc3)c3ccc(CCO)cc3)c2c1 : 65.2

// recorded growth for O=C(Nc1ccc(-n2cc(-c3ccncc3)c(-c3ccc(Cl)c(O)c3)n2)cc1)Nc1ccc(Cl)c(C(F)(F)F)c1 : -12.1
